The values you see were collected from patent US8455475B2.

- TARGET_OR_SYSTEM: rat B1R (bradykinin receptor 1) (Rattus norvegicus)
- Construct: expressed in transfected cells; host or cells: CHO K1 cells
- Sequence (P97583 1-337): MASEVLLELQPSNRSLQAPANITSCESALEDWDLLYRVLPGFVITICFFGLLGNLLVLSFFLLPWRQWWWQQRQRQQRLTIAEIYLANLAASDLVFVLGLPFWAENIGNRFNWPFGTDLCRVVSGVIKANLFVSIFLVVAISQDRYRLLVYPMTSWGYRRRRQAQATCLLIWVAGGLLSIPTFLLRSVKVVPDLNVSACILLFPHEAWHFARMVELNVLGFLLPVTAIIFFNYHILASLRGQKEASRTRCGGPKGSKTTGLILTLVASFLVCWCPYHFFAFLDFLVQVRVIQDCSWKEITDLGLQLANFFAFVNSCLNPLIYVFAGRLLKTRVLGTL
- PROTOCOL_TEXT: FLIPR Ca2+ assay (Fluo-4) on CHO K1 cells stably transfected with the B1R gene of the rat (rB1R cells): % inhibition at 10 μM / IC50, agonist Des-Arg9-bradykinin
- Type: cell-based
- MEASUREMENT_CONDITIONS: CHO-K1, rat B1R
READOUT_TYPE: inhibition at 10 µM (%)

molecule="Cn1nc(C(C)(C)C)cc1C(=O)N1CCC2(CCN(C(=O)c3ccc4c(c3)C(NC(=O)c3ccccc3Cl)CC4)C2)CC1 (stereo not drawn)" scale_unit=% value_measured=79
molecule=O=C(N[C@@H]1CCCc2ccc(C(=O)N3CC4(CCN(c5ccncc5)CC4)C3)cc21)c1ccccc1Cl scale_unit=% value_measured=103
molecule=CN1CCC(N2CCC3(CCN(C(=O)c4ccc5c(c4)[C@H](NC(=O)c4ccccc4Cl)CC5)CC3)CC2)CC1 scale_unit=% value_measured=102
molecule="COc1ccc(C(=O)NC2CCc3ccc(C(=O)N4CCC5(CC4)CCN(c4ccncc4)CC5)cc32)c(Cl)c1 (stereo not drawn)" scale_unit=% value_measured=104
molecule="O=C(NC1CCc2ccc(C(=O)N3CCC4(CCN(CCCc5cccc(F)c5)CC4)CC3)cc21)c1cccc(Cl)c1Cl (stereo not drawn)" scale_unit=% value_measured=78
molecule="O=C(NC1CCc2ccc(C(=O)N3CCC4(CCN(Cc5ccc(F)c(F)c5)CC4)CC3)cc21)c1cc(Cl)ccc1F (stereo not drawn)" scale_unit=% value_measured=63
molecule="O=C(NC1CCc2ccc(C(=O)N3CCC4(CCN(Cc5ccc[nH]5)CC4)CC3)cc21)c1cc(C(F)(F)F)ccc1Cl (stereo not drawn)" scale_unit=% value_measured=80
molecule=O=C(N[C@@H]1CCCc2cc(F)c(C(=O)N3CCC4(CC3)CCN(c3ccncc3)CC4)cc21)c1ccccc1Cl scale_unit=% value_measured=104
molecule="O=C(NC1CCc2ccc(C(=O)N3CCC4(CCN(Cc5c(F)cccc5F)CC4)C3)cc21)c1ccccc1Cl (stereo not drawn)" scale_unit=% value_measured=51
molecule="O=C(NC1CCc2ccc(C(=O)N3CCC4(CCC(Oc5ccncc5)CC4)CC3)cc21)c1ccccc1Cl (stereo not drawn)" scale_unit=% value_measured=100
molecule="O=C(NC1CCc2ccc(C(=O)N3CCC4(CCN(Cc5ccc6nccnc6c5)CC4)C3)cc21)c1cccc(Cl)c1Cl (stereo not drawn)" scale_unit=% value_measured=70
molecule="CC1(C)CC(NC(=O)c2c(Cl)cccc2C(F)(F)F)c2cc(C(=O)N3CCC4(CC3)CCN(c3ccncc3)CC4)ccc21 (stereo not drawn)" scale_unit=% value_measured=99
molecule=O=C(N[C@H]1CCc2cc(C(=O)N3CCC4(CCN(c5ccncc5)CC4)C3)ccc21)c1ccccc1Cl scale_unit=% value_measured=100
molecule="CC1(C)CC(NC(=O)c2ccccn2)c2cc(C(=O)N3CCC4(CC3)CCN(c3ccncc3)CC4)ccc21 (stereo not drawn)" scale_unit=% value_measured=81
molecule="COc1ccc(C(=O)NC2c3cc(C(=O)N4CCC5(CC4)CCN(c4ccncc4)CC5)ccc3CC2(C)C)c(F)c1 (stereo not drawn)" scale_unit=% value_measured=83
molecule=Cc1cc(OC(F)(F)F)ccc1C(=O)N[C@@H]1CCc2ccc(C(=O)N3CCC4(CC3)CCN(c3ccncc3)C4)cc21 scale_unit=% value_measured=64
molecule="O=C(NC1CCc2ccc(C(=O)N3CCC4(CC3)CCN(c3ccncc3)C4)cc21)c1cc(Cl)ccc1C(F)(F)F (stereo not drawn)" scale_unit=% value_measured=106
molecule=O=C(N[C@@H]1CCCc2ccc(C(=O)N3CCC4(CC3)CCN(c3ccncc3)C4)cc21)c1ccccc1Cl scale_unit=% value_measured=104
molecule=Cc1cccc(C)c1C(=O)N[C@@H]1CCc2ccc(C(=O)N3CCC4(CCN(c5ccncc5)CC4)C3)cc21 scale_unit=% value_measured=109
molecule="N#Cc1ccccc1CN1CCC2(CC1)CCN(C(=O)c1ccc3c(c1)C(NC(=O)c1ccccc1Cl)CC3)C2 (stereo not drawn)" scale_unit=% value_measured=92
molecule="O=C(NC1CCc2ccc(C(=O)N3CCC4(CCN(Cc5c(F)cccc5F)CC4)C3)cc21)c1cc(C(F)(F)F)ccc1Cl (stereo not drawn)" scale_unit=% value_measured=64
